- Test system: barnyardgrass (Echinochloa crus-galli L.): ECHCG
- procedure-summary: Test Example 1 pre-emergence herbicidal activity, ECHCG
- Assay type: in vivo
- run-parameters: Rate 63 g a.i./ha, visually observed 20th to 23rd day after application
Label -1 if Pre-emergence Herbicidal Activity ECHCG (growth controlling degree) falls below 40%; label 1 in every other case.

Does the compound COc1c(Cl)cc(F)c(-c2nn(C)c(OC(F)F)c2Cl)c1NC(=O)CCOc1ccccc1 have recorded Pre-emergence Herbicidal Activity ECHCG (growth controlling degree) that is 40% or more?
-1

Is the recorded value of Pre-emergence Herbicidal Activity ECHCG (growth controlling degree) equal to or greater than 40% for this compound? COc1c(Cl)cc(F)c(-c2nn(C)c(OC(F)F)c2Cl)c1NC(=O)C1CC1
1

Determine whether measured Pre-emergence Herbicidal Activity ECHCG (growth controlling degree) meets or exceeds 40% for COCC(=O)Nc1c(OC)c(Cl)cc(F)c1-c1nn(C)c(OC(F)F)c1Cl
1

Threshold query (Pre-emergence Herbicidal Activity ECHCG (growth controlling degree) >= 40%) on COc1c(Cl)cc(F)c(-c2nn(C)c(OC(F)F)c2Cl)c1NCCc1cccc(C)c1
1

In plain terms: is recorded Pre-emergence Herbicidal Activity ECHCG (growth controlling degree) at least 40% for COc1c(Cl)cc(F)c(-c2nn(C)c(OC(F)F)c2Cl)c1NC(=O)C(C)(C)OC(C)=O ?
-1

API: above_or_equal(metric=Pre-emergence Herbicidal Activity ECHCG (growth controlling degree), cutoff=40%) for item COc1c(Cl)cc(F)c(-c2nn(C)c(OC(F)F)c2Cl)c1N(C=O)CC(C)=O
1

Test whether the compound COc1c(Cl)cc(F)c(-c2nn(C)c(OC(F)F)c2Cl)c1NC(C)C records Pre-emergence Herbicidal Activity ECHCG (growth controlling degree) of 40% or higher.
1

Is Pre-emergence Herbicidal Activity ECHCG (growth controlling degree) for COCCC(=O)Nc1c(OC)c(Cl)cc(F)c1-c1nn(C)c(OC(F)F)c1Cl at or above 40%?
1

Does the compound COc1c(Cl)cc(F)c(-c2nn(C)c(OC(F)F)c2Cl)c1NC(=O)c1cccc(Cl)c1 have recorded Pre-emergence Herbicidal Activity ECHCG (growth controlling degree) that is 40% or more?
1

Test whether the compound COc1c(Cl)cc(F)c(-c2nn(C)c(OC(F)F)c2Cl)c1NC(=O)OCc1ccccc1 records Pre-emergence Herbicidal Activity ECHCG (growth controlling degree) of 40% or higher.
1

Reported Pre-emergence Herbicidal Activity ECHCG (growth controlling degree) at or above 40%? COc1c(Cl)cc(F)c(-c2nn(C)c(OC(F)F)c2Cl)c1NC(=O)c1ccccc1C
1

Check this compound for Pre-emergence Herbicidal Activity ECHCG (growth controlling degree) at or above 40%: C#CCN(C=O)c1c(OC(F)F)c(Cl)cc(F)c1-c1nn(C)c(OC(F)F)c1Cl
1

Does Pre-emergence Herbicidal Activity ECHCG (growth controlling degree) meet or surpass 40% for COc1c(Cl)cc(F)c(-c2nn(C)c(OC(F)F)c2Cl)c1NC(=O)C=C(C)C ?
1

Check if Pre-emergence Herbicidal Activity ECHCG (growth controlling degree) >= 40% (inclusive). Item: COc1c(Cl)cc(F)c(-c2nn(C)c(OC(F)F)c2Cl)c1NC(=O)C=Cc1ccccc1C
-1

Identify whether the reported Pre-emergence Herbicidal Activity ECHCG (growth controlling degree) of the following compound is 40% or greater: COc1c(Cl)cc(F)c(-c2nn(C)c(OC(F)F)c2Cl)c1NC(=O)OCc1cccnc1
1

Does the reported Pre-emergence Herbicidal Activity ECHCG (growth controlling degree) for COC(=O)Nc1c(OC)c(Cl)cc(F)c1-c1nn(C)c(OC(F)F)c1Cl fall at or above the 40% mark?
1

Check the entry COc1c(Cl)cc(F)c(-c2nn(C)c(OC(F)F)c2Cl)c1NC(=O)OCc1ccccn1 : does Pre-emergence Herbicidal Activity ECHCG (growth controlling degree) equal or exceed 40%?
1

I'd appreciate it if you could say whether COc1c(Cl)cc(F)c(-c2nn(C)c(OC(F)F)c2Cl)c1NC(=O)OCCN(C)C has Pre-emergence Herbicidal Activity ECHCG (growth controlling degree) at least equal to 40%.
-1

Textbook exercise: given the entry Cn1nc(-c2c(F)cc(Cl)c(OC(F)F)c2NCc2ccccc2)c(Cl)c1OC(F)F , state whether its Pre-emergence Herbicidal Activity ECHCG (growth controlling degree) is greater than or equal to 40%.
1

Is Pre-emergence Herbicidal Activity ECHCG (growth controlling degree) at least 40%? Consider COc1c(Cl)cc(F)c(-c2nn(C)c(OC(F)F)c2Cl)c1N(C)C=O
-1

Given the entry COc1c(Cl)cc(F)c(-c2nn(C)c(OC(F)F)c2Cl)c1NC1CCCC1 , answer whether its Pre-emergence Herbicidal Activity ECHCG (growth controlling degree) meets or surpasses 40%.
-1

Tell me whether Pre-emergence Herbicidal Activity ECHCG (growth controlling degree) is at least 40% here: Cn1nc(-c2c(F)cc(Cl)c(OC(F)F)c2NC=O)c(Cl)c1OC(F)F
1

Dear colleague, could you confirm whether COc1c(Cl)cc(F)c(-c2nn(C)c(OC(F)F)c2Cl)c1NC(=O)CCc1ccccc1F has Pre-emergence Herbicidal Activity ECHCG (growth controlling degree) at or above 40%?
1

Reported Pre-emergence Herbicidal Activity ECHCG (growth controlling degree) at or above 40%? COc1c(Cl)cc(F)c(-c2nn(C)c(OC(F)F)c2Cl)c1NC(=O)OCc1ccccc1Cl
-1

Has COc1c(Cl)cc(F)c(-c2nn(C)c(OC(F)F)c2Cl)c1NCCOc1ccccc1 a recorded Pre-emergence Herbicidal Activity ECHCG (growth controlling degree) greater than or equal to 40%?
-1

For this compound, is measured Pre-emergence Herbicidal Activity ECHCG (growth controlling degree) 40% or higher? COc1c(Cl)cc(F)c(-c2nn(C)c(OC(F)F)c2Cl)c1NC(=O)OCC1CCCCC1
-1

Pre-emergence Herbicidal Activity ECHCG (growth controlling degree) >= 40% for COc1c(Cl)cc(F)c(-c2nn(C)c(OC(F)F)c2Cl)c1NC=O ?
1

Check this compound for Pre-emergence Herbicidal Activity ECHCG (growth controlling degree) at or above 40%: C#CCNc1c(OC)c(Cl)cc(F)c1-c1nn(C)c(OC(F)F)c1Cl
1

Given COc1c(Cl)cc(F)c(-c2nn(C)c(OC(F)F)c2Cl)c1NC(=O)c1ccc(F)cc1F , state whether its Pre-emergence Herbicidal Activity ECHCG (growth controlling degree) is at least 40%.
1

Hi team, for COc1c(Cl)cc(F)c(-c2nn(C)c(OC(F)F)c2Cl)c1N(C(=O)C=C(C)C)C(=O)C=C(C)C , is the recorded Pre-emergence Herbicidal Activity ECHCG (growth controlling degree) at or above 40%?
1

Reported Pre-emergence Herbicidal Activity ECHCG (growth controlling degree) at or above 40%? CCOC(=O)Nc1c(OC)c(Cl)cc(F)c1-c1nn(C)c(OC(F)F)c1Cl
-1
